Numbers sourced from patent US9776997B2.

# test.target: recombinant guanylate cyclase reporter cell line (Rattus norvegicus, UniProt P19686+P20595)
# Construct: expressed in transfected cells; host or cells: recombinant reporter cell line
# protocol.details: Effect on a recombinant guanylate cyclase reporter cell line
# Format: cell-based
# conditions.used: MEC = minimum effective concentration; in some cases mean values for individual determinations
# Experimental: B-2. Effect on a Recombinant Guanylate Cyclase Reporter Cell Line The cellular effect of the inventive compounds is determined using a recombinant guanylate cyclase reporter cell line, as described in F. Wunder et al., Anal. Biochem. 339, 104-112 (2005). Representative MEC values (MEC=minimum effective concentration) for the inventive compounds are shown in the table below (in some cases as mean values for individual determinations): […]
Counter-ions that a name gives are not always drawn.
MEC: recorded values
endpoint.label: MEC (µM)

compound | quantity.unit | test.result
Cc1cc(OCc2c(F)cccc2F)c2nc(C)c(-c3nccc(C(N)=O)n3)n2c1 [Example 80, trifluoroacetate] | µM | 0.3
Cc1nc2c(OCC3CCCCC3)cccn2c1-c1nnc(C(C)O)o1 (centres unmarked) | µM | 3.0
Cc1nc2c(OCc3c(F)cccc3F)cccn2c1-c1ccnc(-c2ccc(F)cc2)c1 | µM | 1.0
CC(=O)Nc1cccc(-c2c(C)nc3c(OCc4c(F)cccc4F)cccn23)c1 | µM | 0.2
Cc1cc(OCc2c(F)cccc2F)c2nc(C)c(-c3cnn(CCN4CCC(F)(F)CC4)c3)n2c1 | µM | 0.03
Cc1nc2c(OCc3c(F)cccc3F)cccn2c1-c1cccc(CN2CCOCC2)c1 | µM | 1.0
CCN(C)Cc1ccc(OC)c(-c2c(C)nc3c(OCc4c(F)cccc4F)cccn23)c1 | µM | 1.0
CCOC(=O)c1ncc(-c2c(C)nc3c(OCc4c(F)cccc4F)cc(C)cn23)s1 | µM | 3.0

---

Measured MEC of individual entries
# test.target: recombinant guanylate cyclase reporter cell line (Rattus norvegicus, UniProt P19686+P20595)
# Construct: expressed in transfected cells; host or cells: recombinant reporter cell line
# Sequence (P19686 1-690): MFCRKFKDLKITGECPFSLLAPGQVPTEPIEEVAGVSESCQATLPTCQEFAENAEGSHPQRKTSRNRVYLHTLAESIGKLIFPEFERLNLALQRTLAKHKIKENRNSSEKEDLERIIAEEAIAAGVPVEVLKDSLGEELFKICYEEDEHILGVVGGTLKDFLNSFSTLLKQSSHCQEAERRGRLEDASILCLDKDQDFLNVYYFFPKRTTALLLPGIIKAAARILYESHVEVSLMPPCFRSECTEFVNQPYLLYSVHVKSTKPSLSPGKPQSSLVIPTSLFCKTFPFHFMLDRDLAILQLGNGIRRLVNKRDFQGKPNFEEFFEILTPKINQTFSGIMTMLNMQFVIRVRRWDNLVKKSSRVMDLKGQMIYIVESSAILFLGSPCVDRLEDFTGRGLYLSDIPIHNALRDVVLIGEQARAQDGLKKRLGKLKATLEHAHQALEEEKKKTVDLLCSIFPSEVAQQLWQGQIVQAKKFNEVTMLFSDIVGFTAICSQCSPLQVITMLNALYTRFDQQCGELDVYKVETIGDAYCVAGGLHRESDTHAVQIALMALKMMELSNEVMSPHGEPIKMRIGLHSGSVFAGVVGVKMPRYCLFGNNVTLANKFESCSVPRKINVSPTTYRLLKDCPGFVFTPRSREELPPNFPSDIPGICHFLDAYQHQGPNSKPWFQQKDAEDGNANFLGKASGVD
# Sequence (P20595 1-619): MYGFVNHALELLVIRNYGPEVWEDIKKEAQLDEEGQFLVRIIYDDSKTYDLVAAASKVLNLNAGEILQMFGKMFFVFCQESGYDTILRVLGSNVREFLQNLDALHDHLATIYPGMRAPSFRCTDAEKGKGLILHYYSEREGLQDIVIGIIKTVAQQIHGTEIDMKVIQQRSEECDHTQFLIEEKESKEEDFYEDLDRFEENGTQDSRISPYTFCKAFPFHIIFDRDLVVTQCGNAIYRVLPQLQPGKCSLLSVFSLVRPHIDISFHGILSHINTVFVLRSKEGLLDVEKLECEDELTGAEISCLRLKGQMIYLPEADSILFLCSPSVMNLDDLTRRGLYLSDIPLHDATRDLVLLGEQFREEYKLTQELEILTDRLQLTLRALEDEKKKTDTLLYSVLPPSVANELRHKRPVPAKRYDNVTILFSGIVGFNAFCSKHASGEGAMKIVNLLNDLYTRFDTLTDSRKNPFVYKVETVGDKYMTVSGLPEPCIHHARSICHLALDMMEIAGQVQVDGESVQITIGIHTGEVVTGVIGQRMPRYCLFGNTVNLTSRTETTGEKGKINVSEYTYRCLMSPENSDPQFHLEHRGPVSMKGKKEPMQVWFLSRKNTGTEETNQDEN
# protocol.details: Effect on a recombinant guanylate cyclase reporter cell line
# Assay type: cell-based
# conditions.used: MEC = minimum effective concentration; in some cases mean values for individual determinations

smiles.structure | MEC [µM]
Cc1nc2c(OCc3c(F)cccc3F)cccn2c1-c1cnn(-c2ccc(F)cc2)c1 | 0.3
Cc1nc(-c2nnc(-c3c(C)nc4c(OCC5CCCCC5)cccn34)o2)cs1 | 3.0
COCc1nnc(-c2c(C)nc3c(OCC4CCCCC4)cccn23)o1 | 3.0
Cc1cc(OCc2c(F)cccc2F)c2nc(C)c(-c3cnn(CC(=O)NC4CC4)c3)n2c1 | 0.03
Cc1cc(OCc2c(F)cccc2F)c2nc(C)c(-c3cnn(CCC(=O)NC4CC4)c3)n2c1 | 0.3
CCOc1cc(-c2c(C)nc3c(OCc4c(F)cccc4F)cc(C)cn23)sc1N | 0.1
Cc1cc(OCc2c(F)cccc2F)c2nc(C)c(-c3cnn(CC(N)=O)c3)n2c1 | 0.1
COC(=O)Cn1cc(-c2c(C)nc3c(OCc4c(F)cccc4F)cc(C)cn23)cn1 | 0.03

---

Quick reference: MEC of the listed items.
# test.target: recombinant guanylate cyclase reporter cell line (Rattus norvegicus, UniProt P19686+P20595)
# Construct: expressed in transfected cells; host or cells: recombinant reporter cell line
# protocol.details: Effect on a recombinant guanylate cyclase reporter cell line
# Format: cell-based
# conditions.used: MEC = minimum effective concentration; in some cases mean values for individual determinations
Where a name gives a salt, the structure may show the parent alone.

compound | MEC
Cc1cc(OCc2c(F)cccc2F)c2nc(C)c(-c3cncc(C(N)=O)c3)n2c1 [Example 77] | 0.1 µM
Cc1cc(OCc2c(F)cccc2F)c2nc(C)c(-c3cn[nH]c3)n2c1 [Example 88] | 0.01 µM
Cc1cc(OCc2c(F)cccc2F)c2nc(C)c(-c3ncc(C)o3)n2c1 [Example 137] | 3.0 µM
Cc1cc(OCc2c(F)ccc(F)c2F)c2nc(C)c(-c3cn[nH]c3)n2c1 [Example 86] | 0.03 µM
Cc1cc(OCc2c(F)cccc2F)c2nc(C)c(-c3cnn(CC(C)(C)N)c3)n2c1.Cl [Example 117] | 0.1 µM
Cc1cc(OCc2c(F)cccc2F)c2nc(C)c(-c3ncn(CC(C)(C)N)n3)n2c1 [Example 129] | 1.0 µM
Cc1cc(OCc2c(F)cccc2F)c2nc(C)c(-c3cccc(CN4CCN(C)CC4)c3)n2c1 [Example 120] | 0.3 µM
Cc1cc(OCc2c(F)cccc2F)c2nc(C)c(-c3cnn(C4CC4C(=O)O)c3)n2c1 (centres unmarked) [Example 111] | 1.0 µM
Cc1nc2c(OCc3c(F)cccc3F)cccn2c1-c1ccc2c(c1)COC2=O [Example 23] | 1.0 µM
Cc1cc(OCc2c(F)cccc2F)c2nc(C)c(-c3cn(CC(C)(C)N)nc3C)n2c1.O=CO [Example 127] | 0.3 µM
Cc1nc2c(OCc3c(F)cccc3F)cccn2c1-c1cccc(CN2CCCCC2)c1 [Example 42] | 3.0 µM
Cc1cc(OCc2c(F)cccc2F)c2nc(C)c(-c3cnn(CCN4CC(O)C4)c3)n2c1 [Example 95, trifluoroacetate] | 0.3 µM
Cc1nc2c(OCC3CCCCC3)cccn2c1-c1nnc(CN2CCCC2=O)o1 [Example 71] | 3.0 µM
CC(=O)c1cccc(-c2c(C)nc3c(OCc4c(F)cccc4F)cccn23)c1 [Example 2] | 0.1 µM
Cc1cc(-c2c(C)nc3c(OCc4c(F)cccc4F)cccn23)ccn1 [Example 3] | 0.1 µM
Cc1nc2c(OCc3c(F)cccc3F)cccn2c1-c1cccc(S(C)(=O)=O)c1 [Example 46] | 0.2 µM
COc1ccc(-c2c(C)nc3c(OCc4c(F)cccc4F)cccn23)cc1CN1CCOCC1 [Example 41] | 3.0 µM

---

# test.target: recombinant guanylate cyclase reporter cell line (Rattus norvegicus, UniProt P19686+P20595)
# Construct: expressed in transfected cells; host or cells: recombinant reporter cell line
# protocol.details: Effect on a recombinant guanylate cyclase reporter cell line
# Format: cell-based
# conditions.used: MEC = minimum effective concentration; in some cases mean values for individual determinations
endpoint.label: log10 of MEC (log10 of the value in µM)

smiles.structure | test.result
Cc1cc(OCc2c(F)cccc2F)c2nc(C)c(-c3cc(CC(C)(C)N)n[nH]3)n2c1 | 0.00
COCCc1nnc(-c2c(C)nc3c(OCC4CCCCC4)cccn23)o1 | 0.48
Cc1nc2c(OCc3c(F)cccc3F)cccn2c1-c1cnn(CC(C)(C)N)c1 | -0.52
CCN(C)Cc1cccc(-c2c(C)nc3c(OCc4c(F)cccc4F)cccn23)c1 | -0.70
Cc1cc(OCc2c(F)cccc2F)c2nc(C)c(-c3nc(CC(C)(C)N)no3)n2c1.O=CO | -0.52
Cc1cc(OCc2ncccc2F)c2nc(C)c(-c3cn[nH]c3)n2c1 | 0.00
Cc1nc2c(OCc3c(F)cccc3F)cccn2c1-c1ccc(C#N)cc1 | 0.00
Cc1nc2c(OCc3c(F)cccc3F)cccn2c1-c1nnc(N)o1 | 0.48
Cc1nc2c(OCc3c(F)cccc3F)cccn2c1-c1ccc(CN2CCOCC2)c(F)c1 | 0.48
Cc1nc2c(OCc3c(F)cccc3F)cccn2c1-c1cccc(OC(F)(F)F)c1 | 0.00
Cc1cc(OCc2c(F)cccc2F)c2nc(C)c(-c3cnn(CCN4CCOCC4)c3)n2c1 | -1.52
Cc1nc2c(OCc3c(F)cccc3F)cccn2c1-c1cnn(-c2cccnc2)c1 | 0.00
CCN(CC)Cc1ccc(-c2c(C)nc3c(OCc4c(F)cccc4F)cccn23)cc1F | 0.48
Cc1nc2c(OCc3c(F)cccc3F)cccn2c1-c1ccc(Oc2ccccc2)cc1 | 0.48
Cc1nc2c(OCc3c(F)cccc3F)cccn2c1-c1cnn(C)c1C | 0.48
Cc1cc(OCc2c(F)cccc2F)c2nc(C)c(-c3cnn(CCOC(N)=O)c3)n2c1 | -0.52
Cc1cc(OCc2c(F)cccc2F)c2nc(C)c(-c3cnn(CCS(C)(=O)=O)c3)n2c1 | -1.19
Cc1nc2c(OCc3c(F)cccc3F)cccn2c1-c1cccc(O)c1 | -1.00
Cc1cc(OCc2c(F)cccc2F)c2nc(C)c(-c3cnn(CC(C)(C)N)n3)n2c1 | -0.52
Cc1nc2c(OCc3c(F)cccc3F)cccn2c1-c1ccncc1 | 0.00
COc1ccc(-c2c(C)nc3c(OCc4c(F)cccc4F)cccn23)cc1 | 0.00
CCOC(=O)c1cc(-c2c(C)nc3c(OCc4c(F)cccc4F)cc(C)cn23)on1 | 0.00
CCS(=O)(=O)c1cccc(-c2c(C)nc3c(OCc4c(F)cccc4F)cccn23)c1 | -1.00
Cc1nc2c(OCc3c(F)cccc3F)cccn2c1-c1ccc(F)c(CN2CCOCC2)c1 | 0.48
Cc1nc2c(OCc3c(F)cccc3F)cccn2c1-c1cnc2ccccc2c1 | 0.00
Cc1cc(OCc2c(F)cccc2F)c2nc(C)c(-c3nnc(CC(C)(C)N)s3)n2c1.O=CO | -0.52
Cc1nc2c(OCC3CCCCC3)cccn2c1-c1nnc(-c2cccnc2)o1 | 0.48
Cc1cc(OCc2c(F)cccc2F)c2nc(C)c(-c3cc(CO)no3)n2c1 | -1.00
Cc1nc2c(OCc3c(F)cccc3F)cccn2c1-c1cccc(Cl)c1 | 0.48
Cc1nc2c(OCc3c(F)cccc3F)cccn2c1-c1cnn(C)c1 | -0.52
Cc1nc2c(OCc3c(F)cccc3F)cccn2c1-c1ccc(F)cc1 | 0.00
Cc1nc2c(OCc3c(F)cccc3F)cccn2c1-c1cccc(C(N)=O)c1 | -1.00
Cc1cc(OCc2c(F)cccc2F)c2nc(C)c(-c3n[nH]c(C(F)(F)F)n3)n2c1 | 0.48
CCn1cc(-c2c(C)nc3c(OCc4c(F)cccc4F)cccn23)cn1 | -0.52
Cc1cc(OCc2c(F)cccc2F)c2nc(C)c(-c3nnc(CC(C)(C)N)o3)n2c1 | 0.48
